# System: Saccharomyces cerevisiae;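 also: PSI is a weighted mean of sequencing reads over stability bins, variants kept only with over 10 reads, mCherry proximal and sfGFP distal, peptide attached via GGGS linker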
# Assay Name: protein stability index of tFT-peptide fusion (C-terminal peptide) (PSI (0-1 scale)); higher = more stable (slower turnover)
# Conditions Used: genetic background: wild type; temperature: 30 C

{"columns": ["Ordered Residues", "protein stability index"],
 "data": [
  ["APLSRPLRLPHP", 0.692],
  ["PGSCAYHIFRFR", 0.583],
  ["PIDYRPEPYALP", 0.775],
  ["WRCAGGGGVGGG", 0.696],
  ["SPPRPPRPRYLF", 0.695],
  ["PPFPPPPPPPLS", 0.714],
  ["PSTLVITVVITK", 0.37],
  ["ECFVCGGGILGG", 0.637],
  ["IALLGCFRVNGN", 0.638],
  ["SERYFFFQCGPH", 0.68],
  ["LGFISGCGVFGT", 0.708],
  ["AEGGGWSFELEG", 0.746],
  ["DSSEGRVRIRIR", 0.714],
  ["PLPLHLATPHLF", 0.694],
  ["EGEERGEGQVRA", 0.675],
  ["GIFRTRGFPPVG", 0.694],
  ["TQYMRVVQAKPD", 0.659],
  ["FPSPPPGPHPSP", 0.763],
  ["IVGIEGYNEIKT", 0.803],
  ["PSPPRPRLPTAV", 0.67],
  ["CLGPDWWARRSI", 0.772],
  ["GGGKRSERGGEP", 0.672],
  ["PLSLPPPSPRPP", 0.657],
  ["LCTCRLSDVRIG", 0.675],
  ["DVSIFTNELGFY", 0.763],
  ["KALFPGLLLCAF", 0.307],
  ["AFSLRGRSVMFY", 0.688],
  ["NHTKAGTEKNKN", 0.618],
  ["CWLFCACFVRLV", 0.101],
  ["LWLCLCCSPFFV", 0.658],
  ["GCGGVGGFGGGL", 0.605]
]}
